Assay Protocol: Volume of distribution in Sprague-Dawley rat at 1 mg/kg, iv by LC/MS/MS analysis
Type: ADME, organism-based
Reported Conditions: in vivo
Readout Type: Vd (L/kg)
Field format: number, assumed L/kg, no unit text.

# input Requested read-out: Vd. Entry: CNC(=O)c1ccccc1Nc1nc(Nc2ccc3c(c2OC)CCC[C@H](N2CCN(CCO)CC2)C3)ncc1Cl
# output 0.8

---

Assay Protocol: Oral bioavailability in CD-1 mouse at 10 mg/kg by LC/MS/MS analysis
Format: ADME, organism-based
Reported Conditions: in vivo
Readout Type: bioavailability (%)
Field format: number, assumed %, no unit text.

# input Requested read-out: bioavailability. Entry: CNC(=O)c1ccccc1Nc1nc(Nc2ccc3c(c2OC)CCC[C@H](N2CCN(CCO)CC2)C3)ncc1Cl [CEP-37440]
# output 102

---

Assay Protocol: Volume of distribution in cynomolgus monkey at 1 mg/kg, iv by LC/MS/MS analysis
Assay type: ADME, organism-based, Macaca fascicularis
Reported Conditions: in vivo
Readout Type: Vd
Answers without a unit are incomplete; give the number and then its unit.

# input Requested read-out: Vd. Entry: CNC(=O)c1ccccc1Nc1nc(Nc2ccc3c(c2OC)CCC[C@H](N2CCN(CCO)CC2)C3)ncc1Cl [CEP-37440]
# output 13.2 L/kg

---

Assay Protocol: Drug level in tumor of NPM-ALK expressing human SUP-M2 cells xenografted mouse at 30 mg/kg, po administered as single dose measured at 24 hrs by LC-MS/MS analysis
Format: ADME, organism-based, Neoplasm
Reported Conditions: read-out: Drug uptake
Readout Type: concentration at 24 h (ng/g)
Field format: number, assumed ng/g, no unit text.

# input Requested read-out: concentration at 24 h. Entry: CNC(=O)c1ccccc1Nc1nc(Nc2ccc3c(c2OC)CCC[C@H](N2CCN(CCO)CC2)C3)ncc1Cl
# output 8200

---

Would you mind telling me the reported IC50 of each entry?
Study Target: ALK tyrosine kinase receptor (Homo sapiens)
Sequence (Q9UM73 19-1620 limits assumed): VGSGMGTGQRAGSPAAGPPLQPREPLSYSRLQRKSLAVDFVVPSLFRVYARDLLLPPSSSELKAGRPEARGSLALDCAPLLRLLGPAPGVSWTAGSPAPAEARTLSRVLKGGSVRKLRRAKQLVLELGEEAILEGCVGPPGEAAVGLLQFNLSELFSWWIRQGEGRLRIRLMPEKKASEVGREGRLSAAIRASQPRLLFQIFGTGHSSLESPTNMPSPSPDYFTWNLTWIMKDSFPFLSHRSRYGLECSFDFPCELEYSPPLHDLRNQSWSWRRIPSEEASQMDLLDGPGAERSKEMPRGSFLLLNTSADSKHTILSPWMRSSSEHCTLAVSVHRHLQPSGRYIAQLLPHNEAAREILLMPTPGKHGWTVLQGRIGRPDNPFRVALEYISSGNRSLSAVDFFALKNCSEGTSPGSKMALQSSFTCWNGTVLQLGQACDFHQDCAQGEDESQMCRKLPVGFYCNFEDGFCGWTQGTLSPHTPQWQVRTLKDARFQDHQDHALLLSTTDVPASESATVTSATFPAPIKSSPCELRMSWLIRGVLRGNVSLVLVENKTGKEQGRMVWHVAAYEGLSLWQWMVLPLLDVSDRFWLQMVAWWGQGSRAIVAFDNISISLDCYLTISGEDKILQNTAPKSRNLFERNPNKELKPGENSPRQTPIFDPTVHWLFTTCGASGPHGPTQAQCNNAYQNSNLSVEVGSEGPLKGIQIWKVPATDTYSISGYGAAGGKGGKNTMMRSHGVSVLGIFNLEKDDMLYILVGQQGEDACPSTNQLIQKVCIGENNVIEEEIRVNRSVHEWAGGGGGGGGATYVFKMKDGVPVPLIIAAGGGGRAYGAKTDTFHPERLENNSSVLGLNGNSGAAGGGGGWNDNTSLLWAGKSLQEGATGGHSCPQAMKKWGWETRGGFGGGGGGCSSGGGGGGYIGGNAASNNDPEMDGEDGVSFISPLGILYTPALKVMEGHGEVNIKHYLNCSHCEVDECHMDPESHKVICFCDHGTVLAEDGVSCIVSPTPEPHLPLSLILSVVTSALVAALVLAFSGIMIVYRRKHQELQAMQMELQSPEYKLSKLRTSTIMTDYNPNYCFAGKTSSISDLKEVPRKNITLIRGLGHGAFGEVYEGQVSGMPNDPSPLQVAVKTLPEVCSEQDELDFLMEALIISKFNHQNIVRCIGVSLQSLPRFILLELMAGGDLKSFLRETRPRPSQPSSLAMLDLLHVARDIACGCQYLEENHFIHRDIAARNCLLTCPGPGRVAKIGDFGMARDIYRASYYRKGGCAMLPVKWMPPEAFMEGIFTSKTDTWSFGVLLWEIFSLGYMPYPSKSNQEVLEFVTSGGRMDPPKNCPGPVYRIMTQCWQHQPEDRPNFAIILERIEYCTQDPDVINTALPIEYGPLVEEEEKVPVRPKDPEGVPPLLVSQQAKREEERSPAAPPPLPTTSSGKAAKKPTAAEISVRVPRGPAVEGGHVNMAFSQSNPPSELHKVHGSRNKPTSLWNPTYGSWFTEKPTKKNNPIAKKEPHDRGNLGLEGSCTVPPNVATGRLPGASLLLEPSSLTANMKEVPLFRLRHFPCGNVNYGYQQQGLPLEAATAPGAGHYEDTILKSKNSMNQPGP
Assay Protocol: Inhibition of NPM-ALK phosphorylation in human SUP-M2 cells after 2 to 3 hrs by ELISA
Format: cell-based
Field format: number, assumed nM, no unit text.

# input Requested read-out: IC50. Entry: COc1c(Nc2ncc(Cl)c(Nc3ccccc3-n3cccn3)n2)ccc2c1CCCC(N1CCN(CCO)CC1)C2 (racemic)
# output 20

# input Requested read-out: IC50. Entry: COc1c(Nc2ncc(Cl)c(Nc3ccccc3S(=O)(=O)N(C)C)n2)ccc2c1CCCC(N1CCN(CCO)CC1)C2 (racemic)
# output 40

# input Requested read-out: IC50. Entry: COc1c(Nc2ncc(Cl)c(Nc3ccccc3N(C)S(C)(=O)=O)n2)ccc2c1CCCC(N1CCN(CCO)CC1)C2 (racemic)
# output 30

# input Requested read-out: IC50. Entry: COc1c(Nc2ncc(Cl)c(Nc3ccccc3-c3nccn3C)n2)ccc2c1CCCC(N1CCN(CCO)CC1)C2 (racemic)
# output 50

# input Requested read-out: IC50. Entry: COc1c(Nc2ncc(Cl)c(N[C@H]3[C@@H](C(N)=O)[C@@H]4C=C[C@H]3C4)n2)ccc2c1CCC[C@H](N1CCN(C)CC1)C2
# output 200

# input Requested read-out: IC50. Entry: COc1c(Nc2ncc(Cl)c(Nc3ccccc3N(C)S(C)(=O)=O)n2)ccc2c1CCCC(N1CCN(C)CC1)C2 (racemic)
# output 40

# input Requested read-out: IC50. Entry: COc1c(Nc2ncc(Cl)c(N[C@H]3[C@@H](C(N)=O)[C@@H]4C=C[C@H]3C4)n2)ccc2c1CCC[C@H](N1CCN(CCO)CC1)C2
# output 30

# input Requested read-out: IC50. Entry: COc1c(Nc2ncc(Cl)c(Nc3ccccc3N3CCCS3(=O)=O)n2)ccc2c1CCCC(N1CCN(CCO)CC1)C2 (racemic)
# output 60

# input Requested read-out: IC50. Entry: COc1c(Nc2ncc(Cl)c(N[C@H]3[C@@H](C(N)=O)[C@@H]4C=C[C@H]3C4)n2)ccc2c1CCCC(N1CCN(C)CC1)C2 (single isomer, unassigned)
# output 200

# input Requested read-out: IC50. Entry: COc1c(Nc2ncc(Cl)c(N[C@H]3[C@@H](C(N)=O)[C@@H]4C=C[C@H]3C4)n2)ccc2c1CCC[C@@H](N1CCN(CCO)CC1)C2
# output 50

---

The reader will find pIC50 measurements below, all made with UniProtKB P10635.
Sequence (P10635 whole entry): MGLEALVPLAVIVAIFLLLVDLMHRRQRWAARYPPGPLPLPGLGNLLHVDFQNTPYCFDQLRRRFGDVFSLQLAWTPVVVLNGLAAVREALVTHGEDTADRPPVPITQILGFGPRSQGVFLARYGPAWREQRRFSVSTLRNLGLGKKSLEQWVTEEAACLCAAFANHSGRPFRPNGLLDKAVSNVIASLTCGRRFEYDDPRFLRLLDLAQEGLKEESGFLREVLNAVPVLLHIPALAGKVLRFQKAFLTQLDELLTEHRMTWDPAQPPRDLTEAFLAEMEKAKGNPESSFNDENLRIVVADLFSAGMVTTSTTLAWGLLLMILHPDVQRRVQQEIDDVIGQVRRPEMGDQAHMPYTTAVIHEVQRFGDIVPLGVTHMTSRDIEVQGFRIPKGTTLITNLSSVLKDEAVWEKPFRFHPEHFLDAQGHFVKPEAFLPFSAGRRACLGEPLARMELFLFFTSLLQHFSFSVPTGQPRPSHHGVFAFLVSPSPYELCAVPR
pIC50: −log10 of the molar value.

# input Requested read-out: pIC50. Entry: CNC(=O)c1ccccc1Nc1nc(Nc2ccc3c(c2OC)CCC[C@H](N2CCN(CCO)CC2)C3)ncc1Cl
# output < 5.25

# input Requested read-out: pIC50. Entry: COc1c(Nc2ncc(Cl)c(N[C@H]3[C@@H](C(N)=O)[C@@H]4C=C[C@H]3C4)n2)ccc2c1CC[C@@H](N1CCOCC1)CC2
# output < 5.00

# input Requested read-out: pIC50. Entry: COc1c(Nc2ncc(Cl)c(N[C@H]3[C@@H](C(N)=O)[C@@H]4C=C[C@H]3C4)n2)ccc2c1CCCC(N1CCN(C)CC1)C2 (single isomer, unassigned)
# output < 5.00

# input Requested read-out: pIC50. Entry: CNC(=O)c1ccccc1Nc1nc(Nc2ccc3c(c2OC)CCC[C@@H](N2CCN(CCO)CC2)C3)ncc1Cl
# output < 5.25

---

Would you mind telling me the reported half-life of each entry?
Assay Protocol: Half life in rat liver microsomes by LC/MS/MS analysis
Format: ADME
Field format: number, assumed min, no unit text.

# input Requested read-out: half-life. Entry: COc1c(Nc2ncc(Cl)c(Nc3ccccc3N(C)S(C)(=O)=O)n2)ccc2c1CCCC(N1CCN(C)CC1)C2 (racemic)
# output 33

# input Requested read-out: half-life. Entry: COc1c(Nc2ncc(Cl)c(N[C@H]3[C@@H](C(N)=O)[C@@H]4C=C[C@H]3C4)n2)ccc2c1CCC[C@@H](N1CCOCC1)C2
# output 5

# input Requested read-out: half-life. Entry: COc1c(Nc2ncc(Cl)c(Nc3ccccc3S(=O)(=O)N(C)C)n2)ccc2c1CCCC(N1CCN(CCO)CC1)C2 (racemic)
# output 40

# input Requested read-out: half-life. Entry: COc1c(Nc2ncc(Cl)c(Nc3ccccc3N(C)S(C)(=O)=O)n2)ccc2c1CCCC(N1CCN(CCO)CC1)C2 (racemic)
# output 37

# input Requested read-out: half-life. Entry: COc1c(Nc2ncc(Cl)c(N[C@H]3[C@@H](C(N)=O)[C@@H]4C=C[C@H]3C4)n2)ccc2c1CCCC(N1CCN(C)CC1)C2 (single isomer, unassigned)
# output 39

# input Requested read-out: half-life. Entry: COc1c(Nc2ncc(Cl)c(Nc3ccccc3N3CCCS3(=O)=O)n2)ccc2c1CCCC(N1CCN(CCO)CC1)C2 (racemic)
# output 38

# input Requested read-out: half-life. Entry: COc1c(Nc2ncc(Cl)c(Nc3ccccc3-n3cccn3)n2)ccc2c1CCCC(N1CCN(CCO)CC1)C2 (racemic)
# output 40

# input Requested read-out: half-life. Entry: CNC(=O)c1ccccc1Nc1nc(Nc2ccc3c(c2OC)CCC[C@H](N2CCN(CCO)CC2)C3)ncc1Cl
# output 40

# input Requested read-out: half-life. Entry: COc1c(Nc2ncc(Cl)c(Nc3ccccc3-c3nccn3C)n2)ccc2c1CCCC(N1CCN(CCO)CC1)C2 (racemic)
# output 22

# input Requested read-out: half-life. Entry: COCCNC1CCCc2c(ccc(Nc3ncc(Cl)c(N[C@H]4[C@@H](C(N)=O)[C@@H]5C=C[C@H]4C5)n3)c2OC)C1 (some centres undefined)
# output 31

# input Requested read-out: half-life. Entry: COc1c(Nc2ncc(Cl)c(Nc3ccccc3NS(C)(=O)=O)n2)ccc2c1CCCC(N1CCN(CCO)CC1)C2 (racemic)
# output 40

# input Requested read-out: half-life. Entry: COc1c(Nc2ncc(Cl)c(N[C@H]3[C@@H](C(N)=O)[C@@H]4C=C[C@H]3C4)n2)ccc2c1CCC[C@H](N1CCN(C)CC1)C2
# output 40

# input Requested read-out: half-life. Entry: CNC(=O)c1ccccc1Nc1nc(Nc2ccc3c(c2OC)CCC[C@@H](N2CCN(CCO)CC2)C3)ncc1Cl
# output 40

---

Assay Protocol: Drug level in plasma of NPM-ALK expressing human SUP-M2 cells xenografted mouse at 30 mg/kg, po administered as single dose measured at 12 hrs by LC-MS/MS analysis
Format: ADME, organism-based
Readout Type: concentration at 12 h (ng/mL)
Field format: number, assumed ng/mL, no unit text.

# input Requested read-out: concentration at 12 h. Entry: CNC(=O)c1ccccc1Nc1nc(Nc2ccc3c(c2OC)CCC[C@H](N2CCN(CCO)CC2)C3)ncc1Cl [CEP-37440]
# output 4030

---

Assay Protocol: Drug level in plasma of NPM-ALK expressing human SUP-M2 cells xenografted mouse at 30 mg/kg, po administered as single dose measured at 24 hrs by LC-MS/MS analysis
Format: ADME, organism-based
Readout Type: concentration at 24 h (ng/mL)
Field format: number, assumed ng/mL, no unit text.

# input Requested read-out: concentration at 24 h. Entry: CNC(=O)c1ccccc1Nc1nc(Nc2ccc3c(c2OC)CCC[C@H](N2CCN(CCO)CC2)C3)ncc1Cl
# output 1160
